Please respond with reported inhibition at 3 µM for every item in the list.
- TEST SYSTEM: androgen receptor (adenovirus AdEasy+rAR in COS-7 cells) (Rattus norvegicus, UniProt P15207)
- Construct: expressed in transfected cells
- Sequence (P15207 1-902): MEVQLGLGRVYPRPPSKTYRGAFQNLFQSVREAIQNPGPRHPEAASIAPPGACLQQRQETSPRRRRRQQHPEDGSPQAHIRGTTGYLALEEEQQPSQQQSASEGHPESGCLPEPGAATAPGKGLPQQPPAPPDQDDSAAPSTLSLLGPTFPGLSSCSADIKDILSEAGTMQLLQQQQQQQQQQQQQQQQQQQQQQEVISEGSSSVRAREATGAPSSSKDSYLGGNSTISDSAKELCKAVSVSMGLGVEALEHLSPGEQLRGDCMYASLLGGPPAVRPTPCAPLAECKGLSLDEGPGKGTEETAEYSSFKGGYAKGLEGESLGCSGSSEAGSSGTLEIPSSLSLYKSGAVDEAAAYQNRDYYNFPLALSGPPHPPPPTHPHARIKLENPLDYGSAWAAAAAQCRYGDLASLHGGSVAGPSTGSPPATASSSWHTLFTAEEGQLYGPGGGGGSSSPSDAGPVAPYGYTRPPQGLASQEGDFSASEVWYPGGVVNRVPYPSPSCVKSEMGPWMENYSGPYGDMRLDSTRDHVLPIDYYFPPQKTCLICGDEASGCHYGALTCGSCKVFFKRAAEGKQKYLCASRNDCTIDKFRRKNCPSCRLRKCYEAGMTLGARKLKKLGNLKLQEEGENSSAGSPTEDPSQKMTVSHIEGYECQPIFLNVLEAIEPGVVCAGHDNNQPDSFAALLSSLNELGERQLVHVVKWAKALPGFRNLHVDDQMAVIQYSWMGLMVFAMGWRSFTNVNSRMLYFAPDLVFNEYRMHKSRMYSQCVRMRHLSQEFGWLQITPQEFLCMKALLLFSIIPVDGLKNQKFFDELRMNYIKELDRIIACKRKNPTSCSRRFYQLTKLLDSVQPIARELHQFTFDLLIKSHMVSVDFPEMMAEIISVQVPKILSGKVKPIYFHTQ
- ASSAY: COS-7 Whole-Cell Androgen Receptor Binding Assay, Adenovirus Transduction
- DETAILS: COS binding; 3000 nM unless otherwise noted
Answers are plain numbers, in %.

Sample answers from the record:
CC(O)(CSCC(F)(F)F)c1[nH]c2cc(C(F)(F)F)c([N+](=O)[O-])cc2c1I (stereo not shown)
71
CCC(O)(CSCC(F)(F)F)c1cc2cc(F)c(C(F)(F)F)cc2[nH]1 (stereo not shown)
80
CC(C)SCC(C)(O)c1cc2cc([N+](=O)[O-])c(C(F)(F)F)cc2[nH]1 (stereo not shown)
68

inhibition at 3 µM measured on CC(O)(CSCC(F)(F)F)c1cc2cc([N+](=O)[O-])c(C(F)(F)F)cc2[nH]1 (stereo not shown) = 92

----------
- TEST SYSTEM: androgen receptor (adenovirus AdEasy+rAR in L929 cells) (Rattus norvegicus)
- Construct: expressed in transfected cells
- ASSAY: L929 Androgen Receptor Functional Assay, Adenovirus Transduction
- Format: cell-based
- DETAILS: L929 agonist testing; @ 8000 nM
QUANTITY MEASURED: % Activity

Sample answers from the record:
CC(O)(CSCC(F)(F)F)c1cc2cc([N+](=O)[O-])c(C(F)(F)F)cc2[nH]1 (stereo not shown) [compound 171]
−1 @ 8000 nM %
CCS(=O)(=O)CC(C)(O)c1cc2cc([N+](=O)[O-])c(C(F)(F)F)cc2[nH]1 (stereo not shown) [compound 151]
−1 @ 8000 nM %
CCSCC(C)(O)c1cc2cc(C#N)c(C(F)(F)F)cc2[nH]1 (stereo not shown) [compound 209]
−3 @ 8000 nM %
CCSCC(O)(CC)c1cc2cc(C#N)c(C(F)(F)F)cc2[nH]1 (stereo not shown) [Compound #223]
0 @ 8000 nM %
CCS(=O)(=O)CC(C)(O)c1cc2cc(C#N)c(C(F)(F)F)cc2[nH]1 (single isomer, unassigned) [Compound #222]
0 @ 8000 nM %

Working through the 3 molecules below one at a time, give % Activity for each.
1. CCSCC(C)(O)c1cc2cc([N+](=O)[O-])c(C(F)(F)F)cc2[nH]1 (single isomer, unassigned) [compound 150]
2. CC(O)(CSc1ccccc1N)c1cc2cc(Cl)c(C(F)(F)F)cc2[nH]1 (stereo not shown) [compound 123]
3. CC(O)(CS(=O)(=O)c1ccc(N)cc1)c1cc2cc(Cl)c(C(F)(F)F)cc2[nH]1 (stereo not shown) [compound 118]

0 @ 8000 nM %
1 @ 8000 nM %
−2 @ 8000 nM %

Working through the 2 molecules below one at a time, give % Activity for each.
1. CC(O)(CSCC(F)(F)F)c1[nH]c2cc(C(F)(F)F)c([N+](=O)[O-])cc2c1I (stereo not shown) [compound 213]
2. CCSCC(C)(O)c1cc2cc(C#N)c(C(F)(F)F)cc2[nH]1 (single isomer, unassigned) [Compound #217]

−1 @ 8000 nM %
0 @ 8000 nM %

----------
- TEST SYSTEM: androgen receptor (adenovirus AdEasy+rAR in L929 cells) (Rattus norvegicus, UniProt P15207)
- Construct: expressed in transfected cells
- Sequence (P15207 1-902): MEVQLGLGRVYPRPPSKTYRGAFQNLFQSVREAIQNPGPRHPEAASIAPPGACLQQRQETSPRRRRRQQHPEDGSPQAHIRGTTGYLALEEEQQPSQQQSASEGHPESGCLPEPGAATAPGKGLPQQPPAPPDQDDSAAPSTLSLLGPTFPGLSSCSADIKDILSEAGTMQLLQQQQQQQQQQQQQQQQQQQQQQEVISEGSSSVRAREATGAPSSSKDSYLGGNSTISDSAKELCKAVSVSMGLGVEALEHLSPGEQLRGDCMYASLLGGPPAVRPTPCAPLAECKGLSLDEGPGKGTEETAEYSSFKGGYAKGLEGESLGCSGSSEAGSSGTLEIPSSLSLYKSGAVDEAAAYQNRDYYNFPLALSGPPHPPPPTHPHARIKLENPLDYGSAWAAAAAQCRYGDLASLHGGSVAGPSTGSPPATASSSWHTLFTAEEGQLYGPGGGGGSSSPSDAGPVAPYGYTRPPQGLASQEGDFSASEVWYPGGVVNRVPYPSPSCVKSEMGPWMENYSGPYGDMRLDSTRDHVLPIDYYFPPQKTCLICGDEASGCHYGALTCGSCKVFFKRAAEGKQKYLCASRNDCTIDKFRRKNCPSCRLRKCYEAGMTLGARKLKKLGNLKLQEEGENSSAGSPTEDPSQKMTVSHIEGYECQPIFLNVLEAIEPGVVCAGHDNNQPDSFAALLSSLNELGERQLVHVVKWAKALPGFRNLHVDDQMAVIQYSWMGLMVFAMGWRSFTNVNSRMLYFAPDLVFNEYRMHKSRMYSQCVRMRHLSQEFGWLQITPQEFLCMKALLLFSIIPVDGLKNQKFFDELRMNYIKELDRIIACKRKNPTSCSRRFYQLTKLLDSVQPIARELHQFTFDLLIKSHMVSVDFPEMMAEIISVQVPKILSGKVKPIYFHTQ
- ASSAY: L929 Androgen Receptor Functional Assay, Adenovirus Transduction
- Type: cell-based
- DETAILS: L929 agonist testing; 3000 nM
QUANTITY MEASURED: % Activity (%)
Answers are plain numbers, in %.

CC(C)SC(C)(CO)c1cc2cc([N+](=O)[O-])c(C(F)(F)F)cc2[nH]1 (racemic)
9
CC(O)(CSCc1ccco1)c1cc2cc([N+](=O)[O-])c(C(F)(F)F)cc2[nH]1 (racemic)
7

Working through the 3 compounds below one at a time, give % Activity for each.
1. CCCSCC(C)(O)c1cc2cc([N+](=O)[O-])c(C(F)(F)F)cc2[nH]1 (centres unmarked)
2. CSCCC(C)(O)c1cc2cc([N+](=O)[O-])c(C(F)(F)F)cc2[nH]1 (racemic)
3. CC(O)(CSc1ccc(N)cc1)c1cc2cc(Cl)c(C(F)(F)F)cc2n1S(C)(=O)=O (racemic)

3
2
−5

Working through the 5 compounds below one at a time, give % Activity for each.
1. CSCC(C)(O)c1cc2cc(Cl)c(C(F)(F)F)cc2[nH]1 (centres unmarked)
2. CCC(O)(CSCC(F)(F)F)c1cc2cc(F)c(C(F)(F)F)cc2[nH]1 (centres unmarked)
3. CCS(=O)(=O)CC(C)(O)c1[nH]c2cc(C(F)(F)F)c(C#N)cc2c1C (single isomer, unassigned)
4. CC(O)(CS(C)(=O)=O)c1cc2cc([N+](=O)[O-])c(C(F)(F)F)cc2[nH]1 (centres unmarked) [compound 140]
5. C[S+]([O-])CCC(C)(O)c1cc2cc([N+](=O)[O-])c(C(F)(F)F)cc2[nH]1 (mixture of isomers)

1. 0
2. 2
3. −1
4. 0
5. 2

Working through the 4 compounds below one at a time, give % Activity for each.
1. CC(O)(CSc1ccc(O)cc1)c1cc2cc(Cl)c(C(F)(F)F)cc2[nH]1 (centres unmarked)
2. CC(O)(CSCC(F)(F)F)c1cc2cc(F)c(C(F)(F)F)cc2[nH]1 (centres unmarked)
3. CN(C)c1ccccc1SCC(C)(O)c1cc2cc(Cl)c(C(F)(F)F)cc2[nH]1 (centres unmarked)
4. CC(O)(CSc1ccc(C(=O)O)cc1)c1cc2cc(Cl)c(C(F)(F)F)cc2[nH]1 (centres unmarked)

1: −5; 2: 3; 3: −5; 4: −4
